For each record, write down the corresponding concentration at 4 h.
- experiment.summary: Plasma concentration in CD1 mouse at 30 mg/kg, po at 4 hrs by LC-MS/MS analysis
- Type: ADME, organism-based
- Set-up: dose 30 mg/kg, route oral
Give the quantity in µM, number only.

Asked: Determine from records and report concentration at 4 h for COc1cc(Nc2cccc3c2nc(Cc2ccc(F)cc2)n3C)ccc1-n1cnc(C)c1
Given back: 15.7

Asked: Determine from records and report concentration at 4 h for COc1cc(Nc2cccc3c2nc(-c2ccc(F)cc2)n3C)ccc1-n1cnc(C)c1
Given back: 17.3

Asked: Determine from records and report concentration at 4 h for COc1cc(Nc2cccn3c(C)c(-c4ccccc4C(F)(F)F)nc23)ccc1-n1cnc(C)c1
Given back: 4.9

Asked: Determine from records and report concentration at 4 h for COc1cccc(-n2cc3cccc(Nc4ccc(-n5cnc(C)c5)c(OC)c4)c3n2)c1
Given back: 12.8

Asked: Determine from records and report concentration at 4 h for COc1cc(Nc2cccn3cc(C)nc23)ccc1-n1cnc(C)c1
Given back: 15.5

Asked: Determine from records and report concentration at 4 h for COc1cc(Nc2cccn3cc(Cc4ccc(F)cc4)nc23)ccc1-n1cnc(C)c1
Given back: 17.5

Asked: Determine from records and report concentration at 4 h for Cc1cn(-c2ccc(Nc3cccc4c3nc(-c3ccc(F)cc3)n4C)nc2)cn1
Given back: 39.6

Asked: Determine from records and report concentration at 4 h for COc1cc(Nc2cccc3c2nc(CC(C)C)n3C)ccc1-n1cnc(C)c1
Given back: 14.1

Asked: Determine from records and report concentration at 4 h for COc1cc(Nc2cccc3c2nc(-c2ccc(F)cc2F)n3C)ccc1-n1cnc(C)c1
Given back: 27

Asked: Determine from records and report concentration at 4 h for COc1cc(Nc2cccc3oc(CC(C)C)nc23)ccc1-n1cnc(C)c1
Given back: 4.7

---

- experiment.summary: Plasma concentration in CD1 mouse at 20 mg/kg, po at 4 hrs by LC-MS/MS analysis
- Type: ADME, organism-based
- Design: dose 20 mg/kg, route oral
experimental.readout: concentration at 4 h

Asked: Determine from records and report concentration at 4 h for CCCCc1cn2cccc(Nc3ccc(-n4cnc(C)c4)c(OC)c3)c2n1
Given back: 10 µM

---

- experiment.summary: Thermodynamic solubility in 0.01N HCl
- conditions.used: read-out: Therm_solubility
experimental.readout: solubility thermodynamic (µg/mL)
Give the quantity in µg/mL, number only.

Asked: Determine from records and report solubility thermodynamic for COc1nc(Nc2cccc3c2nc(-c2ccc(F)cc2)n3C)ccc1-n1cnc(C)c1
Given back: 1170

---

- experiment.summary: Plasma concentration in Sprague-Dawley rat at 10 mg/kg, po at 2 hrs by LC-MS/MS analysis
- Format: ADME, organism-based
- Design: dose 10 mg/kg, route oral
experimental.readout: concentration at 2 h
Please provide the amount together with its unit, number first.

Asked: Determine from records and report concentration at 2 h for COc1nc(Nc2cccc3c2nc(-c2ccc(F)cc2)n3C)ccc1-n1cnc(C)c1
Given back: 4.6 µM

---

- experiment.summary: Drug metabolism in mouse liver microsomes at 1 uM after 15 mins by ion-trap mass spectrophotometry
- Assay type: ADME, Microsome
- conditions.used: read-out: Drug metabolism
experimental.readout: metabolised at 0.25 h, 1 µM (%)
Give the quantity in %, number only.

Asked: Determine from records and report metabolised at 0.25 h, 1 µM for COc1nc(Nc2cccc3c2nc(-c2ccc(F)cc2)n3C)ccc1-n1cnc(C)c1
Given back: 0
